Biological target: Macaca fascicularis IL-36R extracellular domain expressed with a C-terminal myc-myc-hexahistidine tag (Macaca fascicularis)
Test: SPR (Biacore 4000), mAb captured on anti-human Fc, 25°C
Listed here: items and their measured koff.
measure: koff (s⁻¹)

# binder, experimental_value
data = [
    ("H4H14708P2 (antibody, human IgG4 S228P, kappa, V domains shown) VH: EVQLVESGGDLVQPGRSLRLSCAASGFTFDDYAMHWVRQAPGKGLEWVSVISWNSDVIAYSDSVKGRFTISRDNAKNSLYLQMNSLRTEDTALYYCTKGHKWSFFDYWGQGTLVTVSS VL: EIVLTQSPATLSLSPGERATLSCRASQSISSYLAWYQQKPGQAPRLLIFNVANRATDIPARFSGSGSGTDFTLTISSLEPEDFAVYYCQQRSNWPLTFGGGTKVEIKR", 0.000579),
    ("H4H14709P (antibody, human IgG4 S228P, kappa, V domains shown) VH: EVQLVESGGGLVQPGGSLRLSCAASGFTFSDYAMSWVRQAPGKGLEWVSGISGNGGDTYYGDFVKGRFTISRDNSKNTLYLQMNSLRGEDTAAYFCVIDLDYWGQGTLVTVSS VL: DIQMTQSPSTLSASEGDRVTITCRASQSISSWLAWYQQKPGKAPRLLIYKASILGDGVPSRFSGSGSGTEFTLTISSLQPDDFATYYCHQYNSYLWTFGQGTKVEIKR", 0.000401),
    ("H4H14731P (antibody, human IgG4 S228P, kappa, V domains shown) VH: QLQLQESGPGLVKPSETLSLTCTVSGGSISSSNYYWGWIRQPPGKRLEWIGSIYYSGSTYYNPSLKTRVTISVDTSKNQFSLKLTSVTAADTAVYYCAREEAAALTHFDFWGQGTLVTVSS VL: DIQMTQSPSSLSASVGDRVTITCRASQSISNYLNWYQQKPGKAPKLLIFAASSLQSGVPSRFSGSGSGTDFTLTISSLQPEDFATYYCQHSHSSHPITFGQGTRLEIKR", 0.000951),
    ("H4H14728P (antibody, human IgG4 S228P, kappa, V domains shown) VH: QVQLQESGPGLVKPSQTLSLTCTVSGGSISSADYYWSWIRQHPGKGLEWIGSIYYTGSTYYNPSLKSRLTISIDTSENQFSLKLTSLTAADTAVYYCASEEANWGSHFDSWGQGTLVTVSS VL: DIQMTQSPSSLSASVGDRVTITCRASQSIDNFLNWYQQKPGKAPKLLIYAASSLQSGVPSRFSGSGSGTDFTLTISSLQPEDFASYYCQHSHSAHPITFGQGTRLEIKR", 0.000406),
]
